# Tested System: Signal peptidase I (Escherichia coli K-12)
# Assay Protocol: Inhibition of Escherichia coli type 1 signal peptidase lepB assessed as residual activity at 0.3125 uM preincubated for 10 mins followed by Dabcyl-VGGTATAYGAFSRPGLE-(EDANS)-OH substrate addition measured after 2 hrs by FRET based assay (reference value: 100%)
Square brackets hold non-standard residues; d marks the D form. Peptide text beside a SMILES is read from it. * marks the point of attachment. Benzoyl(4-(4-hexylphenyl)) = CCCCCCc1ccc(-c2ccc(C(=O)*)cc2)cc1; X1 = C[C@H](N*)B1OC2C[C@@H]3C[C@@H](C3(C)C)[C@]2(C)O1; boroAla = C[C@H](N*)B(O)O; Orn = NCCC[C@H](N)C(=O)O
Items are presented alongside their recorded Activity.

# Molecule, Tested System, Activity [%]
data = [
    ("CCCCCCc1ccc(-c2ccc(C(=O)N[C@@H](CCCN)C(=O)N(C)[C@H](C(=O)N[C@@H](C)C(=O)N[C@H]3Cc4cn(nn4)CCCN4C[C@@H]5OB(O[C@@H]5C4)[C@H](C)NC3=O)[C@@H](C)O)cc2)cc1", "Signal peptidase I (Escherichia coli K-12)", 34.2),
    ("CCCCCCc1ccc(-c2ccc(C(=O)N[C@@H](CCCN)C(=O)N[C@H](C(=O)N[C@@H](C)C(=O)N[C@@H](CC(N)=O)C(=O)N[C@@H](C)B3OC4C[C@@H]5C[C@@H](C5(C)C)[C@]4(C)O3)[C@@H](C)O)cc2)cc1 (some centres not stated) ({Benzoyl(4-(4-hexylphenyl))}-[Orn]TAN-X1)", "Signal peptidase I (Escherichia coli K-12)", 3.5),
    ("CCCCCCc1ccc(-c2ccc(C(=O)N[C@@H](CCCN)C(=O)N[C@H](C(=O)N[C@@H](C)C(=O)N[C@H]3Cc4cn(nn4)CCO[C@@H]4C[C@@H]5OB(O[C@@H]5C4)[C@H](C)NC3=O)[C@@H](C)O)cc2)cc1", "Signal peptidase I (Escherichia coli K-12)", 39.1),
    ("C[C@@H]1NC(=O)[C@@H](NC(=O)[C@H](C)NC(=O)[C@@H](NC(=O)[C@H](CCCN)NC(=O)C#Cc2ccc(-c3ccccc3)cc2)[C@@H](C)O)Cc2cn(nn2)CCO[C@@H]2C[C@@H]3OB1O[C@@H]3C2", "Signal peptidase I (Escherichia coli K-12)", 30),
    ("CCCCCCc1ccc(-c2ccc(C(=O)N[C@@H](CCCNC(=N)N)C(=O)N[C@H](C(=O)N[C@@H](C)C(=O)N[C@H]3Cc4cn(nn4)CCCN4C[C@@H]5OB(O[C@@H]5C4)[C@H](C)NC3=O)[C@@H](C)O)cc2)cc1", "Signal peptidase I (Escherichia coli K-12)", 39.1),
    ("CCCCCCc1ccc(-c2ccc(C(=O)N[C@@H](CCCN)C(=O)N[C@H](C(=O)N[C@@H](C)C(=O)N[C@@H](CC(N)=O)C(=O)N[C@@H](C)B(O)O)[C@@H](C)O)cc2)cc1 ({Benzoyl(4-(4-hexylphenyl))}-[Orn]TAN-boroAla)", "Signal peptidase I (Escherichia coli K-12)", 20.3),
    ("CCCCCCc1ccc(-c2ccc(C(=O)N[C@@H](CCCN)C(=O)N[C@H](C(=O)N[C@@H](C)C(=O)N[C@H]3Cc4cn(nn4)CCCN4C[C@@H]5OB(O[C@@H]5C4)[C@H](C)NC3=O)[C@@H](C)O)cc2)cc1", "Signal peptidase I (Escherichia coli K-12)", 43),
]

* * *

# Tested System: Signal peptidase I (Escherichia coli K-12) (UniProt P00803)
# Sequence (P00803 whole entry): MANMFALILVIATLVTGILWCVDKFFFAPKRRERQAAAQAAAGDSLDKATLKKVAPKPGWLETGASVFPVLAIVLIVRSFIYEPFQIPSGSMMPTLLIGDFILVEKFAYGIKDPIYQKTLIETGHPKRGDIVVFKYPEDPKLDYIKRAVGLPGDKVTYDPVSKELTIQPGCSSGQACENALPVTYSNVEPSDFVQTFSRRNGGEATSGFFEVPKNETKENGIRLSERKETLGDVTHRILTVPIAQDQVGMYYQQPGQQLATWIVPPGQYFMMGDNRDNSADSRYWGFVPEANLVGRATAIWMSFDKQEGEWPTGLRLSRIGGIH
# Assay Protocol: Inhibition of Escherichia coli type 1 signal peptidase lepB assessed as residual activity at 0.0006 uM preincubated for 10 mins followed by Dabcyl-VGGTATAYGAFSRPGLE-(EDANS)-OH substrate addition measured after 2 hrs by FRET based assay (reference value: 100%)
Square brackets hold non-standard residues; d marks the D form. Peptide text beside a SMILES is read from it. * marks the point of attachment. Benzoyl(4-(4-hexylphenyl)) = CCCCCCc1ccc(-c2ccc(C(=O)*)cc2)cc1; X1 = C[C@H](N*)B1OC2C[C@@H]3C[C@@H](C3(C)C)[C@]2(C)O1; boroAla = C[C@H](N*)B(O)O; Orn = NCCC[C@H](N)C(=O)O
Readout Type: Activity (%)

# Compound, Readout Type, Quantitative Result
records = [
    ("CCCCCCc1ccc(-c2ccc(C(=O)N[C@@H](CCCNC(=N)N)C(=O)N[C@H](C(=O)N[C@@H](C)C(=O)N[C@H]3Cc4cn(nn4)CCCN4C[C@@H]5OB(O[C@@H]5C4)[C@H](C)NC3=O)[C@@H](C)O)cc2)cc1", "Activity", 108),
    ("CCCCCCc1ccc(-c2ccc(C(=O)N[C@@H](CCCN)C(=O)N[C@H](C(=O)N[C@@H](C)C(=O)N[C@@H](CC(N)=O)C(=O)N[C@@H](C)B(O)O)[C@@H](C)O)cc2)cc1 ({Benzoyl(4-(4-hexylphenyl))}-[Orn]TAN-boroAla)", "Activity", 95.9),
    ("CCCCCCc1ccc(-c2ccc(C(=O)N[C@@H](CCCN)C(=O)N[C@H](C(=O)N[C@@H](C)C(=O)N[C@H]3Cc4cn(nn4)CCCN4C[C@@H]5OB(O[C@@H]5C4)[C@H](C)NC3=O)[C@@H](C)O)cc2)cc1", "Activity", 89.5),
    ("CCCCCCc1ccc(-c2ccc(C(=O)N[C@@H](CCCN)C(=O)N[C@H](C(=O)N[C@@H](C)C(=O)N[C@@H](CC(N)=O)C(=O)N[C@@H](C)B3OC4C[C@@H]5C[C@@H](C5(C)C)[C@]4(C)O3)[C@@H](C)O)cc2)cc1 (stereo partly specified) ({Benzoyl(4-(4-hexylphenyl))}-[Orn]TAN-X1)", "Activity", 114),
    ("CCCCCCc1ccc(-c2ccc(C(=O)N[C@@H](CCCN)C(=O)N[C@H](C(=O)N[C@@H](C)C(=O)N[C@H]3Cc4cn(nn4)CCO[C@@H]4C[C@@H]5OB(O[C@@H]5C4)[C@H](C)NC3=O)[C@@H](C)O)cc2)cc1", "Activity", 95.3),
    ("CCCCCCc1ccc(-c2ccc(C(=O)N[C@@H](Cc3cnc[nH]3)C(=O)N[C@H](C(=O)N[C@@H](C)C(=O)N[C@H]3Cc4cn(nn4)CCCN4C[C@@H]5OB(O[C@@H]5C4)[C@H](C)NC3=O)[C@@H](C)O)cc2)cc1", "Activity", 94.5),
]

* * *

# Tested System: Signal peptidase I (Escherichia coli K-12)
# Assay Protocol: Inhibition of Escherichia coli type 1 signal peptidase lepB assessed as residual activity at 1.25 uM preincubated for 10 mins followed by Dabcyl-VGGTATAYGAFSRPGLE-(EDANS)-OH substrate addition measured after 2 hrs by FRET based assay (reference value: 100%)

# Record Smiles, Unit Tag, Activity
records = [
    ("C[C@@H]1NC(=O)[C@@H](NC(=O)[C@H](C)NC(=O)[C@@H](NC(=O)[C@H](CCCN)NC(=O)c2ccc(=O)n(-c3ccccc3)c2)[C@@H](C)O)Cc2cn(nn2)CCO[C@@H]2C[C@@H]3OB1O[C@@H]3C2", "%", 62.1),
    ("C[C@@H]1NC(=O)[C@@H](NC(=O)[C@H](C)NC(=O)[C@@H](NC(=O)[C@H](CCCN)NC(=O)C#Cc2ccc(-c3ccccc3)cc2)[C@@H](C)O)Cc2cn(nn2)CCO[C@@H]2C[C@@H]3OB1O[C@@H]3C2", "%", 22.5),
    ("CCCCCCc1ccc(-c2ccc(C(=O)N[C@@H](CCCN)C(=O)N[C@H](C(=O)N[C@@H](C)C(=O)N[C@H]3Cc4cn(nn4)CCCN4C[C@@H]5OB(O[C@@H]5C4)[C@H](C)NC3=O)[C@@H](C)O)cc2)cc1", "%", 32.8),
    ("CCCCCCc1ccc(-c2ccc(C(=O)N[C@@H](CCCN)C(=O)N[C@H](C(=O)N[C@@H](C)C(=O)N[C@H]3Cc4cn(nn4)CCN4C[C@@H]5OB(O[C@@H]5C4)[C@H](C)NC3=O)[C@@H](C)O)cc2)cc1", "%", 32.9),
    ("CCCCCCc1ccc(-c2c[nH]c3ccc(C(=O)N[C@@H](CCCN)C(=O)N[C@H](C(=O)N[C@@H](C)C(=O)N[C@H]4Cc5cn(nn5)CCO[C@@H]5C[C@@H]6OB(O[C@@H]6C5)[C@H](C)NC4=O)[C@@H](C)O)cc23)cc1", "%", 8.1),
    ("CCCCCCc1ccc(-n2cc(C(=O)N[C@@H](CCCN)C(=O)N[C@H](C(=O)N[C@@H](C)C(=O)N[C@H]3Cc4cn(nn4)CCO[C@@H]4C[C@@H]5OB(O[C@@H]5C4)[C@H](C)NC3=O)[C@@H](C)O)ccc2=O)cc1", "%", 24.3),
]
